Assay: Plasma pharmacokinetic comparison of zaleplon free base and HCl salt after single oral doses
Format: in vivo
Conditions: male, beagle, dog, plasma, po, 5 mg/kg, male beagle dogs; single oral dose 5.0 mg Free Base/kg; dog TDR2
MEASURED ATTRIBUTE: Cmax (µg/mL)
Just the number please, in µg/mL, no unit attached.

Kindly note the recorded Cmax for CCN(C(C)=O)c1cccc(-c2ccnc3c(C#N)cnn23)c1 [zaleplon free base, reference compound] , which is 1.1

====

Test: Pharmacokinetics of indiplon after oral administration of free base or HBr co-crystal suspension
Format: in vivo, male beagle dogs
Details: male, beagle, dog, plasma, po, 5 mg/kg, male dogs; single oral dose 5 mg free base/kg; 0.5% methylcellulose suspension; dog CVRCVX; read-out: Tmax
MEASURED ATTRIBUTE: Tmax (min)
Just the number please, in min, no unit attached.

Kindly note the recorded Tmax for CC(=O)N(C)c1cccc(-c2ccnc3c(C(=O)c4cccs4)cnn23)c1 [Indiplon free base, reference compound] , which is 30

====

Test: Plasma pharmacokinetic comparison of zaleplon free base and HCl salt after single oral doses
Format: in vivo
Settings: male, beagle, dog, plasma, po, 2.5 mg HCl Salt/kg, male beagle dogs; single oral dose 2.5 mg HCl Salt/kg; Mean of 5 dogs
MEASURED ATTRIBUTE: AUC(0-inf)

Kindly note the recorded AUC(0-inf) for CCN(C(C)=O)c1cccc(-c2ccnc3c(C#N)cnn23)c1.Cl [zaleplon HCl, Zaleplon Hydrochloride] , which is 2320 ng·h/mL

====

Assay: Plasma pharmacokinetic comparison of zaleplon free base and HCl salt after single oral doses
Assay type: in vivo
Details: male, beagle, dog, plasma, po, 2.5 mg HCl Salt/kg, male beagle dogs; single oral dose 2.5 mg HCl Salt/kg; dog TKR-2
MEASURED ATTRIBUTE: AUC(0-inf) (ng·h/mL)
Just the number please, in ng·h/mL, no unit attached.

Kindly note the recorded AUC(0-inf) for CCN(C(C)=O)c1cccc(-c2ccnc3c(C#N)cnn23)c1.Cl [zaleplon HCl, Zaleplon Hydrochloride] , which is 3760
